Assay: E. coli acrAB mutant growth effects, primary screen, E. coli filamentation inducers, strain DRC39, OD650, 48 h (AID 1179);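 note: screen aims at cell division blockers that make cells filament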
Details: E. coli DRC39 delta-acrAB growth, higher = more signal, called active from +8 up or from −8 down
Give Y when the value for z-score is at least -0.4. Give N when it is less.

Here are 5 compounds together with their reported answers.
Compound	Assigned Label
CN(C)C(=O)[C@@]1(CCC(=O)OC(C)(C)C)N=C(c2ccc(OCCCO)cc2)O[C@H]1c1ccccc1CN=[N+]=[N-]	Y
CCOC(=O)C[C@H]1[C@H](OC(=O)c2ccccc2-c2ccccc2)[C@@H](NC(=O)c2ccccc2)c2cc(OCCCO)ccc2N1C(=O)c1ccccc1	N
C=C(C)C1CCC(C(O)C2C=CC3C(=O)N(C)C(=O)C3N2Nc2cc(OC)c(OC)c(OC)c2)CC1 (configuration not stated)	Y
COc1ccc(CCNC(=O)[C@@]2(Cc3ccccc3I)c3ccccc3C(=O)N(Cc3ccccc3Cl)[C@H]2c2ccc(CO)cc2)cc1	N
COc1ccc(C(=O)Nc2cccc(CN3C(=O)[C@@]4(O[C@@H](CC(=O)N(CCO)Cc5ccccc5)[C@H]([Si](C)(C)c5ccc(OC)cc5)[C@H]4C)c4ccccc43)c2)cc1	Y

Okay, next one:
Decide: z-score of CCCNC(=O)[C@@]1(C)c2ccccc2C(=O)N(Cc2ccccc2)[C@H]1c1ccc(CO)cc1 >= -0.4?
Y

----------
Test: basal S. cerevisiae growth modulation, no modifier, primary screen, OD600, strain BY4716, 24 h, basal condition (AID 1173)
Settings: OD600, 24 h, higher = more signal, called active from +8 up or from −8 down
Calls of active or inactive are those of the source.
Form field: z-score (one value per entry).

Please look up its z-score: CCCNC(=O)[C@@]1(C)c2ccccc2C(=O)N(Cc2ccccc2)[C@H]1c1ccc(CO)cc1
-0.312 (inactive)

What do you have for CC(=O)N1CC(C(O)C2C=CC3C(=O)NC(=O)C3N2Nc2ccc(Cl)cc2Cl)c2ccccc21 (centres undefined) ?
-2.62 (inactive)

Try the compound C=C(/C(=C/C[C@H](OC(=O)c1ccncc1)c1cccc(OCCO)c1)c1cnc2ccccc2c1)C(C)C
-18.5 (active)

Lookup C=CCC(OC(C)=O)[C@@H]1[C@@H](N(Cc2cccc3ccccc23)C(=O)c2ccc(-c3ccccc3)cc2)c2cc(OCCCO)ccc2N1C(=O)c1ccc(-c2ccccc2)cc1 (some centres undefined)
-0.166 (inactive)

----------
Test system: Plasmodium falciparum Sir2 (PF13_0152, Sir2A)
Experiment: pfSir2 binders on small-molecule microarrays, primary screen, biochemical, small-molecule microarray, 635 nm fluorescence (AID 1098);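 note: score merges spot fluorescence intensity with its signal-to-noise ratio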
Conditions: small-molecule microarray binding, fluorescence 635 nm; higher = more signal
The following compounds are shown together with reported composite z-score values.
Provide a numeric answer; units are not to be included.

Example cases with answers are listed next.
Compound	Outcome Measure	Assay Result
O=C1C2C=CC(C(O)c3ccc4c(c3)OCO4)N(Nc3ccccc3)C2C(=O)N1c1ccccc1 (stereo not given)	composite z-score	1.41
COc1ccc([Si](C)(C)[C@H]2[C@H](CC(=O)N3Cc4ccccc4C[C@H]3CO)O[C@@]3(C(=O)N(Cc4ccc(N5C(=O)c6cccc7cccc5c67)cc4)c4ccccc43)[C@@H]2C)cc1	composite z-score	0.959
COCC(=C=CC[C@H](O)c1cccc(OCCO)c1)C[C@H](O)COCc1ccccc1	composite z-score	1.66
C[C@]1(C(=O)NCC(F)(F)F)c2ccccc2C(=O)N(Cc2ccccc2)[C@H]1c1ccc(CO)cc1	composite z-score	0.905

API: the following record is the query input.
Quick one: composite z-score of C=C[C@@H](C)[C@H](O)c1ccc(OCCO)cc1 ?
-0.112

From: PubChem BioAssay
